Data provenance is PubChem BioAssay AID1159580.

- TEST: chemical genetic growth profiling, strain panel (AID 1159580);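 note: tested at 20 µM; growth read once vehicle control cultures reached saturation at 30 °C; 1 = growth at the plate median or of vehicle wells; lower values mean less growth of the strain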
- EXPERIMENTAL CONDITIONS: S. cerevisiae deletion strains, growth OD, locus YNL307C, strain MCK1
The campaign covered roughly 5,500 compounds. About 2,000 (36%) were called active. Roughly 18% stayed inconclusive and do not appear here. Cut-off read from the data, not from the text of the source: active = normalized growth mostly below about 0.91 (no sharp cut-off); inconclusive = no clear call, values can overlap the other calls; inactive = mostly above about 0.92. Some of the results follow.
Classes used: active, inactive

>>> label("COc1cc(O)c2c(=O)cc(-c3ccc(O)cc3)oc2c1")
"inactive"
>>> label("COc1ccc(-c2cc(=O)c3c(O)cc(O)cc3o2)cc1")
"inactive"
>>> label("CC(C)Nc1nc(Cl)nc(NC(C)C)n1")
"inactive"
>>> label("CCc1ccc2c(O)c3c(cc2c1C(=O)OC)C(=O)c1c(O)ccc(O)c1C3=O")
"inactive"
>>> label("COc1ccc(-c2cc(=O)c3c(O)c(OC)c(O[C@H]4O[C@H](CO[C@@H]5O[C@@H](C)[C@H](O)[C@@H](O)[C@H]5O)[C@@H](O)[C@H](O)[C@H]4O)cc3o2)cc1")
"inactive"
>>> label("NC(N)=Nc1ccc(Cl)cc1")
"inactive"
>>> label("CCCCCC(O)C1C(=O)OC(C)C(O)/C=C/C=C/C=C/C=C/C=C(\\C)C(O)CC(O)CC(O)CC(O)CC(O)CC(O)CC1O (stereo not drawn)")
"inactive"
>>> label("COC1C(O)C(O[C@H]2CC[C@]3(C=O)C4C(CC[C@]3(O)C2)[C@@]2(O)CC[C@H](C3=CC(=O)OC3)[C@@]2(C)C[C@H]4OC(C)=O)OC(C)C1OC(C)=O (stereo partly drawn)")
"active"

====

- TEST: chemical genetic growth profiling, strain panel (AID 1159580);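 note: tested at 20 µM; growth read once vehicle control cultures reached saturation at 30 °C; 1 = growth at the plate median or of vehicle wells; lower values mean less growth of the strain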
- EXPERIMENTAL CONDITIONS: S. cerevisiae deletion strains, growth OD, locus YPL241C, strain CIN2
Out of some 5,500 compounds screened, about 2,000 (36%) were called active. Roughly 18% stayed inconclusive and do not appear here. Rule as the data show it: active = normalized growth mostly below about 0.91 (no sharp cut-off); inconclusive = no clear call, values can overlap the other calls; inactive = mostly above about 0.92. The list shows a part of the results.
Classes used: active, inactive

>>> label("CCCN(CCC)C(=O)Cc1c(-c2ccc(Cl)cc2)nc2c(Cl)cc(Cl)cn12")
"inactive"
>>> label("Nc1nc2c(ncn2COC(CO)CO)c(=O)[nH]1")
"inactive"
>>> label("NC[C@@H]1O[C@H](O[C@@H]2[C@@H](CO)OC(O[C@@H]3[C@@H](O)[C@H](N)C[C@H](N)[C@H]3O[C@H]3O[C@H](CO)[C@@H](O)[C@H](O)[C@H]3N)[C@@H]2O)[C@H](N)[C@@H](O)[C@@H]1O (some centres undefined)")
"inactive"
>>> label("CC[C@H]1CN2CCC1C[C@@H]2[C@@H](O)c1ccnc2ccc(OC)cc12 (some centres undefined)")
"inactive"
>>> label("CSCCC(N)C(=O)NC(CC(C)C)C(=O)NC(Cc1ccccc1)C(=O)O (centres undefined)")
"inactive"
>>> label("CN(C)/C=C1\\CSc2ccc(F)cc2C1=O")
"active"
>>> label("CC1(C)C(O)CC(=O)C2(C)C1CC(O)C1(C)C2CCC2(C)C(c3ccoc3)OC(=O)C3OC321 (centres undefined)")
"inactive"
>>> label("O=C(Nc1ccc(OC(F)(F)F)cc1)Nc1cccc(C(=O)O)c1")
"inactive"
>>> label("Cc1onc(-c2ccccc2)c1C(=O)On1c(-c2ccccc2)nc2ccccc2c1=O")
"active"
>>> label("CC1(C)S[C@@H]2[C@H](NC(=O)C(C(=O)O)c3ccccc3)C(=O)N2[C@H]1C(=O)O (some centres undefined)")
"inactive"
>>> label("NCC(O)CC(=O)O (centres undefined)")
"inactive"
>>> label("COc1ccc(-c2cc(=O)c3c(O)cc(O)cc3o2)cc1")
"inactive"
>>> label("COc1ccc(-c2cc(=O)c3c(O)c(OC)c(O[C@H]4O[C@H](CO[C@@H]5O[C@@H](C)[C@H](O)[C@@H](O)[C@H]5O)[C@@H](O)[C@H](O)[C@H]4O)cc3o2)cc1")
"inactive"
>>> label("C[C@@H](CO)NC(=O)C1C=C2c3cccc4[nH]cc(c34)C[C@H]2N(C)C1 (some centres undefined)")
"inactive"
>>> label("CC(=O)O[C@]1(C(C)=O)CC[C@H]2[C@@H]3C=C(Cl)C4=CC(=O)[C@@H]5C[C@@H]5[C@]4(C)[C@H]3CC[C@@]21C")
"inactive"
>>> label("O=C1NC(=S)NC(=O)C1=Cc1cccc2ccccc12")
"inactive"
>>> label("CC(C)=CC1C(CO)C1(C)C (centres undefined)")
"inactive"
>>> label("Cc1ccc(S(=O)(=O)N2CCC(N)=N2)cc1")
"inactive"
>>> label("N#C/C(=C\\c1c[nH]c2ccccc12)C(=O)c1ccc(O)c(O)c1")
"inactive"

====

// values below are reported normalized growth
- TEST: chemical genetic growth profiling, strain panel (AID 1159580);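 note: tested at 20 µM; growth read once vehicle control cultures reached saturation at 30 °C; 1 = growth at the plate median or of vehicle wells; lower values mean less growth of the strain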
- EXPERIMENTAL CONDITIONS: S. cerevisiae deletion strains, growth OD, locus YNL307C, strain MCK1, active compounds read low
Out of some 5,500 compounds screened, about 2,000 (36%) were called active. About 18% were inconclusive and are not listed. The list shows a part of the results.
OBSERVABLE: normalized growth

>>> readout_value("O=c1c(O)cc([C@H]2Oc3cc(O)cc(O)c3C[C@H]2O)cc2c([C@H]3Oc4cc(O)cc(O)c4C[C@H]3O)cc(O)c(O)c12")
1.02
>>> readout_value("COC(=O)CC1C(C)(C)C(OC(C)=O)[C@@H]2[C@@H](OC(C)=O)[C@]34O[C@@]2(O)[C@]1(C)C3CC[C@]1(C)C4=CC(=O)O[C@H]1c1ccoc1 (stereo not given in full)")
1.01
>>> readout_value("CCn1nc(C(=O)O)c(=O)c2cc3c(cc21)OCO3")
1.03
>>> readout_value("COC(=O)C(N)CS (stereo not given)")
0.797
>>> readout_value("CSCCC(N)C(=O)NC(CC(C)C)C(=O)NC(Cc1ccccc1)C(=O)O (stereo not given)")
0.98
>>> readout_value("NS(=O)(=O)c1cc2c(cc1C(F)(F)F)NC(Cc1ccccc1)NS2(=O)=O (stereo not given)")
1.01
>>> readout_value("COP(N)(=O)SC (stereo not given)")
1.03
>>> readout_value("CC(=O)OCC(=O)[C@@]1(O)CCC2C3C[C@H](C)C4=CC(=O)C=CC4(C)C3[C@@H](O)CC21C (stereo not given in full)")
1.01
>>> readout_value("CC[C@H]1CN2CCC1C[C@@H]2[C@@H](O)c1ccnc2ccc(OC)cc12 (stereo not given in full)")
1.01
>>> readout_value("NCC(O)CC(=O)O (stereo not given)")
1.01
>>> readout_value("CC(=O)O[C@@H]1CC2C(C)(CC[C@H](O)C2(C)C)C2CC[C@]3(C)C(=CC(=O)O[C@H]3c3ccoc3)C21C (stereo not given in full)")
0.98
>>> readout_value("CCOC(=O)CC(SP(=S)(OC)OC)C(=O)OCC (stereo not given)")
1.02
>>> readout_value("COc1cc(C)c2c(=O)c3c(O)cc(O)cc3oc2c1")
0.868
>>> readout_value("CC(C)(C)NCC(O)COc1cccc2c1C[C@H](O)[C@H](O)C2 (stereo not given in full)")
0.986
>>> readout_value("C[C@@H]1CC[C@@]23CCC4(C)[C@@](C=CC5[C@@]6(C)CC[C@H](O)C(C)(C)C6CC[C@]54C)(OC2=O)C3[C@H]1C (stereo not given in full)")
1
>>> readout_value("C[C@@H](CO)NC(=O)C1C=C2c3cccc4[nH]cc(c34)C[C@H]2N(C)C1 (stereo not given in full)")
0.985
>>> readout_value("C/C=C(/C)C(=O)O[C@@H]1Cc2c(ccc3ccc(=O)oc23)OC1(C)C")
1
>>> readout_value("COc1cc(C)c2c(=O)c3c(O)cc(OC)cc3oc2c1")
0.981
>>> readout_value("COC(=O)[C@H]1[C@H]2C[C@H]3c4[nH]c5cc(OC)ccc5c4CCN3C[C@H]2C[C@@H](OC(=O)c2cc(OC)c(OC)c(OC)c2)[C@@H]1OC")
0.987
>>> readout_value("CC[C@@]1(O)C(=O)OCc2c1cc1n(c2=O)Cc2cc3cc(O)ccc3nc2-1")
0.979

====

List of normalized growth values.
- TEST: chemical genetic growth profiling, strain panel (AID 1159580);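 note: tested at 20 µM; growth read once vehicle control cultures reached saturation at 30 °C; 1 = growth at the plate median or of vehicle wells; lower values mean less growth of the strain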
- EXPERIMENTAL CONDITIONS: S. cerevisiae deletion strains, growth OD, locus YOL012C, strain htz1
The whole screen tested about 5,500 compounds, of which about 2,000 (36%) were called active. Inconclusive results (about 18%) are left out. Some of the results follow.
OBSERVABLE: normalized growth

>>> readout_value("CC1CCCC(C)N1NC(=O)c1ccc(Cl)c(S(N)(=O)=O)c1 (stereo unspecified)")
0.717
>>> readout_value("CCc1ccc2c(O)c3c(cc2c1C(=O)OC)C(=O)c1c(O)ccc(O)c1C3=O")
0.673
>>> readout_value("COc1nc(NC(C)C)nc(NC(C)C)n1")
1.23
>>> readout_value("COC(=O)C[C@H]1C(C)(C)[C@@H](O)[C@@H]2CC3=C4CC(O)O[C@@H](c5ccoc5)[C@]4(C)CCC3[C@@]1(C)C2=O (stereo partly specified)")
0.701
>>> readout_value("O=C(O)CN(CCN(CC(=O)O)CC(=O)O)CC(=O)O")
0.486
>>> readout_value("CC(=O)Oc1ccccc1C(=O)Oc1ccccc1C(=O)O")
0.794
>>> readout_value("Cc1c(OCC(F)(F)F)ccnc1CS(=O)c1nc2ccccc2[nH]1 (stereo unspecified)")
0.898
>>> readout_value("O=C(/C=C(\\O)c1ccccc1)c1ccccc1O")
0.3
>>> readout_value("O=C(O)c1ccccc1O")
1.01
>>> readout_value("COC1=CC(=O)C=C(OC)C1=O")
0.746
>>> readout_value("NC(=O)c1cc([N+](=O)[O-])cc([N+](=O)[O-])c1")
0.763
>>> readout_value("CSCCC(N)C(=O)NC(CC(C)C)C(=O)NC(Cc1ccccc1)C(=O)O (stereo unspecified)")
0.734
>>> readout_value("CC(=O)N1CCCC1C(=O)O (stereo unspecified)")
1.51
>>> readout_value("CCCCCC(O)C1C(=O)OC(C)C(O)/C=C/C=C/C=C/C=C/C=C(\\C)C(O)CC(O)CC(O)CC(O)CC(O)CC(O)CC1O (stereo unspecified)")
1.12
>>> readout_value("Cc1c(C(N)=O)cc([N+](=O)[O-])cc1[N+](=O)[O-]")
0.838
>>> readout_value("COc1ccccc1N1CCN(CCCNc2cc(=O)n(C)c(=O)n2C)CC1")
0.738
>>> readout_value("NC[C@H]1O[C@H](O[C@H]2[C@H](O)[C@@H](O[C@H]3O[C@H](CO)[C@@H](O)[C@H](N)[C@H]3O)[C@H](N)C[C@@H]2N)[C@H](N)[C@@H](O)[C@@H]1O")
1.19
>>> readout_value("Cc1ccccc1N1C(=O)c2cc(S(N)(=O)=O)c(Cl)cc2NC1C (stereo unspecified)")
0.785
>>> readout_value("NC[C@H]1O[C@H](OC2[C@@H](N)C[C@@H](N)[C@H](O[C@H]3O[C@H](CO)[C@@H](O)[C@H](N)[C@H]3O)[C@H]2O)[C@H](O)[C@@H](O)[C@@H]1O (stereo partly specified)")
1.24
>>> readout_value("NCC(O)CC(=O)O (stereo unspecified)")
0.788
>>> readout_value("O=C(Oc1ccccc1C(=O)O)c1ccccc1O")
0.938
